# System: RXF 393 renal
# test.protocol: NCI tumour cell line growth inhibition, 48 h
yes means recorded TGI is 7 µM or above; no means it is below 7 µM.

// below: answered molecules
Q: Check this molecule for TGI at or above 7 µM: CCCCCCCCCCCCCS(=O)(=O)NCC(N)=O
Result: yes

Q: Check this molecule for TGI at or above 7 µM: O=C(O)c1nn(-c2ccccc2)nc1-c1nn(-c2ccccc2)nc1C(=O)O
Result: yes

Q: Check this molecule for TGI at or above 7 µM: Cc1cc(N(CCNc2ccnc3cc(Cl)ccc23)Cc2ccc3c(c2)OCO3)nc(N2CCCC2)n1
Result: no

Q: Check this molecule for TGI at or above 7 µM: COc1ccc2c(c1)-c1c(c3cc(OC)ccc3n(CCN(C)C)c1=O)C2=O
Result: yes

Q: Check this molecule for TGI at or above 7 µM: O=C(NC1C/C(=N/O)c2c(Br)sc(Br)c21)C(F)(F)F (stereo unspecified)
Result: yes

New cases:
Q: Check this molecule for TGI at or above 7 µM: CC(=O)NC(C)(C)C1CCC(C)CC1 (stereo unspecified)
Result: yes

Q: Check this molecule for TGI at or above 7 µM: COc1ccc(/C=C/c2ccnc3ccccc23)cc1OC
Result: yes

Q: Check this molecule for TGI at or above 7 µM: NC(=S)N1N=C2c3ccccc3CCC[C@H]2[C@@H]1c1ccccc1
Result: no

Q: Check this molecule for TGI at or above 7 µM: CCN1C(=O)N(CC)C2C1N=C(SC)N2/N=C/C=C/c1ccccc1OC (stereo unspecified)
Result: yes

Q: Check this molecule for TGI at or above 7 µM: Cn1c(=O)c2[nH]c(SC/C(=N/O)c3ccc(Br)cc3)nc2n(C)c1=O
Result: no

----------
# Tested on: U251 CNS
Could you please pick one outcome from this set? active, inactive

// below: answered compounds
Q: Which result was noted for this compound in the test: Fc1ccc(Nc2nc(Nc3ccc(-c4nc5ccccc5[nH]4)cc3)c3cn[nH]c3n2)cc1
Result: inactive

Q: Which result was noted for this compound in the test: CC(=O)[CH-]C(=O)c1ccccc1.CC(=O)[CH-]C(=O)c1ccccc1.CC(=O)[CH-]C(=O)c1ccccc1.[Ga+3]
Result: inactive

Q: Which result was noted for this compound in the test: Cc1ccc(-c2nc3sc(C)cn3c2/C=C2\C(=O)Nc3ccc(Cl)cc32)cc1
Result: inactive

Q: Which result was noted for this compound in the test: N#Cc1c(N)nc(N2CCOCC2)c(C#N)c1-c1c(Cl)cccc1Cl
Result: inactive

Q: Which result was noted for this compound in the test: CC1OC(O[C@@H]2C=C3CC[C@@H]4[C@H](CC[C@]5(C)[C@@H](c6ccc(=O)oc6)CC[C@]45O)[C@@]3(C)CC2)C(O)C(OC2OC(CO)C(O)C(O)C2O)C1O (some centres undefined)
Result: active

Q: Which result was noted for this compound in the test: COc1ccc2c(c1)-c1c(c3cc(OC)ccc3n(CCN(C)C)c1=O)C2=O
Result: inactive

Q: Which result was noted for this compound in the test: CSc1ccc(C(=O)/C=C/c2ccc(Cl)cc2Cl)cc1
Result: inactive

Q: Which result was noted for this compound in the test: S=C(SSC(=S)N1CCCCC1)N1CCCCC1
Result: inactive

// next entry
Q: Which result was noted for this compound in the test: CN(C)c1ccc2[nH]c3c(C(N)=O)cc(=O)c(=O)c=3oc2c1
Result: inactive
